Parameter MFC: see the listing below.
# System: Aspergillus niger
# Test protocol: Antimicrobial activity against Aspergillus niger after 7 days by tube dilution method
# Format: functional
# Particulars: 168 h

Below: 5 compounds and their reported MFC.
[
  {
    "Mol smiles": "Nc1ccc(C(=O)n2c(-c3ccc(S(=O)(=O)O)cc3)nc3ccccc32)cc1",
    "MFC": "> 50 µg/mL"
  },
  {
    "Mol smiles": "O=C(c1ccccc1O)n1c(-c2ccc(S(=O)(=O)O)cc2)nc2ccccc21",
    "MFC": "> 50 µg/mL"
  },
  {
    "Mol smiles": "O=C(c1ccc([N+](=O)[O-])cc1)n1c(-c2ccc(S(=O)(=O)O)cc2)nc2ccccc21",
    "MFC": "> 50 µg/mL"
  },
  {
    "Mol smiles": "CCCCCCCC/C=C/CCCCCCCC(=O)n1c(-c2ccc(S(=O)(=O)O)cc2)nc2ccccc21",
    "MFC": "> 50 µg/mL"
  },
  {
    "Mol smiles": "Cc1ccc(C(=O)n2c(-c3ccc(S(=O)(=O)O)cc3)nc3ccccc32)cc1",
    "MFC": "> 50 µg/mL"
  }
]

Read off the recorded MFC for COc1ccc(C(=O)n2c(-c3ccc(S(=O)(=O)O)cc3)nc3ccccc32)cc1 > 50 µg/mL

Name the recorded MFC of the item O=C(c1ccc(Cl)cc1)n1c(-c2ccc(S(=O)(=O)O)cc2)nc2ccccc21 in your answer. > 50 µg/mL
